- tested-target: Gal(b1-3)Gal(b1-4)GlcNAc
- test-description: glycan array binding signal (z-score within array); higher = stronger binding
- assay-setup: glycan notation: IUPAC condensed, linker removed
This is one part of a sample in which the strongest signals are shown more often than they occur.
measure-name: glycan array binding signal (z-score)

# annotated cases, reported glycan array binding signal (z-score) shown
// glycan array binding signal (z-score) value for Gal 7 (Homo sapiens) (protein) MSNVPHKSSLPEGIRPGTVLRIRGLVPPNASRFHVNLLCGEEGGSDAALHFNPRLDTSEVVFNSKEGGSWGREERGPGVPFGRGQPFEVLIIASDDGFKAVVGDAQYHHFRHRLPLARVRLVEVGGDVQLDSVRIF : -0.341

The reported glycan array binding signal (z-score) of the binder ACA (Amaranthus caudatus) (protein) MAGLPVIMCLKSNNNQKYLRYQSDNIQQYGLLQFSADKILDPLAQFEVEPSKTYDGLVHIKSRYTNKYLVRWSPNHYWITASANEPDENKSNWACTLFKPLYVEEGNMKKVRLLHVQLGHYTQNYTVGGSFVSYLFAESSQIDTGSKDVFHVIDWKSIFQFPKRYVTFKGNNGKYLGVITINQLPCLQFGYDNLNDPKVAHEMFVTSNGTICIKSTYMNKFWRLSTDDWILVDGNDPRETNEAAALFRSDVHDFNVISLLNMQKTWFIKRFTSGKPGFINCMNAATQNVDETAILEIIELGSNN was 0.13

Please find the next binder below.
Entry Nc3LysM-2 (protein) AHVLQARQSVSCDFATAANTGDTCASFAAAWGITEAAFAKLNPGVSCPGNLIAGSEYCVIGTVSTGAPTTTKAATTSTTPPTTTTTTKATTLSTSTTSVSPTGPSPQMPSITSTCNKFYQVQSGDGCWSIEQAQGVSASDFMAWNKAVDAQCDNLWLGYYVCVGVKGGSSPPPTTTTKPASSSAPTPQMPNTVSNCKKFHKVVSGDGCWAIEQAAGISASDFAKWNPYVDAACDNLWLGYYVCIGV ; glycan array binding signal (z-score) = -0.043
